system: CCR3 (Homo sapiens)
Sequence (P51677 1-355): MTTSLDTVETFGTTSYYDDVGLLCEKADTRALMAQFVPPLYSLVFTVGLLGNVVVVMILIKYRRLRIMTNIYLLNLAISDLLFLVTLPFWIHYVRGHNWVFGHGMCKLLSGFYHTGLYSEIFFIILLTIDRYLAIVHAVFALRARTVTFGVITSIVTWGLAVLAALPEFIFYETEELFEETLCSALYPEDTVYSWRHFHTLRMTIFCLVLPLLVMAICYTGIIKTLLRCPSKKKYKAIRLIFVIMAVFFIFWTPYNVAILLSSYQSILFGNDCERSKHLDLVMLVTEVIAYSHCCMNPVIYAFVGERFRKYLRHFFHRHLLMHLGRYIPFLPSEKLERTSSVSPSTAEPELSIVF
quantity-name: Ki

// solved cases for Ki follow
> print(dat)
                    structure.smiles.string               system        reported
1  O=C(CCCCl)N1CCN(S(=O)(=O)c2cc([N+](=O)[O-])ccc2Sc2cc(Cl)ccc2Cl)CC1  CCR3 (Homo sapiens)       > 5000 nM
2  N#Cc1ccc(Oc2cc(Cl)cc(Cl)c2)c(S(=O)(=O)N2CCN(C(=O)Nc3cccc(F)c3)CC2)c1  CCR3 (Homo sapiens)         ≤ 50 nM
3  N#CCC(=O)N1CCN(S(=O)(=O)c2cc(C#N)ccc2Oc2cc(Cl)cc(Cl)c2)CC1  CCR3 (Homo sapiens)    50 to 500 nM
4  Cc1cc(C)cc(Oc2ccc(C#N)cc2S(=O)(=O)N2CCN(C(=S)N(C)C)CC2)c1  CCR3 (Homo sapiens)       > 5000 nM
5  Cc1cc(C)cc(Sc2ccc(C#N)cc2S(=O)(=O)N2CCN(C(=O)c3ccc(C(F)(F)F)cc3)CC2)c1  CCR3 (Homo sapiens)       > 5000 nM
6  N#Cc1ccc(Oc2cc(Cl)cc(Cl)c2)c(S(=O)(=O)N2CCN(C(=O)Oc3ccccc3)CC2)c1  CCR3 (Homo sapiens)  500 to 5000 nM

Shifting focus to the compound that follows.
Incoming: For the record CC(C)NC(=O)N1CCN(S(=O)(=O)c2cc(C#N)ccc2Oc2cc(Cl)cc(Cl)c2)CC1 , what value of Ki is listed for CCR3 (Homo sapiens)?
Outgoing: 500 to 5000 nM

----------
system: CCR3 (Homo sapiens, UniProt P51677)
Sequence (P51677 1-355): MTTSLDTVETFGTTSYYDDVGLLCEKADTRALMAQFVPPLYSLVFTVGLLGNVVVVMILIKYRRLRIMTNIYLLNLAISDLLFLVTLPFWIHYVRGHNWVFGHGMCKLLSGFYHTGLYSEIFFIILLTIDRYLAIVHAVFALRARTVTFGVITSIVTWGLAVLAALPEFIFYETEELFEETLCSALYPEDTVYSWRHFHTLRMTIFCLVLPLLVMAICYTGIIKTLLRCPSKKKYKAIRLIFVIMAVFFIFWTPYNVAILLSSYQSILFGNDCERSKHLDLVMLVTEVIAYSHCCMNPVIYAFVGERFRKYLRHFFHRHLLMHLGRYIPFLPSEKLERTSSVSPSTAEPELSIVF
pKi: −log10 of the molar value.
Listing of recorded pKi by entry.

Please review the entries below; each comes with its answer.
> print(dat)
                                   compound                               system  reported
1  CC(=O)c1cccc(NC(=O)N2CCN(S(=O)(=O)c3cc(C#N)ccc3Oc3cc(Cl)cc(Cl)c3)CC2)c1 [Compound 140]  CCR3 (Homo sapiens, UniProt P51677)    ≥ 7.30
2  Cc1cc(C)cc(Oc2ccc(C#N)cc2S(=O)(=O)N2CCN(S(=O)(=O)c3ccc(C(F)(F)F)cc3)CC2)c1 [Compound 60]  CCR3 (Homo sapiens, UniProt P51677)    < 5.30
3  N#Cc1ccc(Oc2cc(Cl)cc(Cl)c2)c(S(=O)(=O)N2CCN(C(=S)NC(=O)/C=C/c3ccccc3)CC2)c1 [Compound 147]  CCR3 (Homo sapiens, UniProt P51677)    < 5.30
4  CCOC(=O)CCNC(=S)N1CCN(S(=O)(=O)c2cc([N+](=O)[O-])ccc2Sc2cc(Cl)ccc2Cl)CC1 [Compound 198]  CCR3 (Homo sapiens, UniProt P51677)    ≥ 7.30
5  C=CCOC(=O)N1CCN(S(=O)(=O)c2cc(C#N)ccc2Oc2cc(Cl)cc(Cl)c2)CC1 [Compound 159]  CCR3 (Homo sapiens, UniProt P51677)    < 5.30

Incoming: # query: pKi of entry N#Cc1ccc(Oc2cc(Cl)cc(Cl)c2)c(S(=O)(=O)N2CCN(C(=S)NCc3cccc(Cl)c3)CC2)c1 [Compound 149]
Outgoing: < 5.30

Incoming: Report pKi for N#Cc1ccc(Oc2cc(Cl)cc(Cl)c2)c(S(=O)(=O)N2CCN(C(=O)c3ccc4nonc4c3)CC2)c1 [Compound 130] please.
Outgoing: < 5.30

Incoming: Entry N#Cc1ccc(Oc2cc(Cl)cc(Cl)c2)c(S(=O)(=O)N2CCN(C(=O)NCCCl)CC2)c1 [Compound 142] : reported pKi = ?
Outgoing: 6.30 to 7.30

Incoming: Quick one: pKi for O=C(c1ccccc1)N1CCN(S(=O)(=O)c2cc([N+](=O)[O-])ccc2Sc2cc(Cl)ccc2Cl)CC1 [Compound 163] ?
Outgoing: < 5.30

Incoming: I have this compound here, O=[N+]([O-])c1ccc(Sc2cc(Cl)ccc2Cl)c(S(=O)(=O)N2CCN(S(=O)(=O)c3ccccc3)CC2)c1 [Compound 204] , and I need its recorded pKi.
Outgoing: < 5.30
